Field: drug sensitivity score. Provide a value for each of the compounds that follow.
System: U2OS
Assay: drug sensitivity score (DSS) for viability; higher = more toxic; extreme values may be limits of the assay
Conditions: 72 h
The answer should be written as a number, with no unit following it.

Quick check: drug sensitivity score of "Nc1c(-c2cccc(C(F)(F)F)c2)nsc1C(=O)O" ? 0

Repeat for the following compound: "Cn1nnc(-c2ccc(-c3ccc(N4C[C@H](CO)OC4=O)cc3F)cn2)n1" 0

Repeat for the following compound: "CCOC(=O)c1ccc(N2NC(=O)/C(=C/c3ccc([N+](=O)[O-])o3)C2=O)cc1" 1.8

Repeat for the following compound: "CC(=O)c1ccc2c(c1)N(CCCN1CCC(CCO)CC1)c1ccccc1S2" 0

Repeat for the following compound: "O=C(Nc1ccc(Oc2ccc(Cl)cn2)c(Cl)c1)c1ccccn1" 0

Repeat for the following compound: "CN1CCN(CCCN2c3ccccc3Sc3ccc(Cl)cc32)CC1" 0

Repeat for the following compound: "O=C(O)CCc1nc(-c2ccccc2)c(-c2ccccc2)o1" 0

Repeat for the following compound: "Cc1c(C(=O)Nc2ccc(N3C[C@@H](C)O[C@@H](C)C3)nc2)cccc1-c1ccc(OC(F)(F)F)cc1" 0.3

Repeat for the following compound: "O=c1[nH]c(=O)n([C@H]2C[C@H](O)[C@@H](CO)O2)cc1I" 0
